- assay_overview: gradient 5% acetonitrile 3 min, to 50% in 2 min, to 85% in 15 min, held 3 min, 100 µL/min
- condition: column: Zorbax Extend-C18 2.1 x 50 mm; eluents: water / acetonitrile, 0.1% formic acid
observation_type: RP-LC retention time (s)

INSERT INTO assay_data (molecule, unit_of_measurement, observed) VALUES
  ('O=C(NCc1ccco1)C1CN(S(=O)(=O)c2ccccc2)CC12CCCCC2 (stereo not drawn)', 's', 942),
  ('CCn1cc(C2=CCN(S(=O)(=O)c3cccc(Cl)c3)CC2)c2cccnc21', 's', 1070),
  ('COc1ccc(CN2C[C@@H]3C(=O)N(CCCN4CCCC4=O)C(=O)[C@@H]3C2)c(OC)c1', 's', 598),
  ('CNC(=O)c1ccc(-c2nc3cc(NS(=O)(=O)c4ccccc4F)ccc3n2C)cc1', 's', 616),
  ('CCC1=NS(=O)(=O)c2cccnc2N1c1ccc2c(c1)OCCO2', 's', 800),
  ('CCC(=O)N1CCc2sc(S(=O)(=O)NCc3ccc4c(c3)OCO4)cc2C1', 's', 773),
  ('COc1ccccc1NC(=O)N1CCC(c2nnc(-c3ccccc3OC)s2)CC1', 's', 825),
  ('Cc1ccc(Cn2c(CN3CCC(C(=O)NCCC4=CCCCC4)CC3)cc3ccccc32)cc1', 's', 952),
  ('O=c1n(Cc2cccc(C(F)(F)F)c2)nc2c(S(=O)(=O)N3CCCCCC3)cccn12', 's', 1020),
  ('COc1ccc(C2c3c(oc4ccc(Br)cc4c3=O)C(=O)N2C)cc1OC (stereo not drawn)', 's', 774),
  ('Cc1nc(-c2noc(-c3cccnc3)n2)cn1CC(=O)NC1CCCC1', 's', 646),
  ('O=C(NCc1ccc(F)cc1)c1cccc(-c2ccc(N3CCCC3)nc2)c1', 's', 680),
  ('O=C(NCc1ccc(F)cc1)c1ccc(-n2nc(N3CCCC3)ccc2=O)cc1', 's', 810);

----------
- assay_overview: gradient 5% acetonitrile 3 min, to 50% in 2 min, to 85% in 15 min, held 3 min, 100 µL/min
- condition: column: Zorbax Extend-C18 2.1 x 50 mm; eluents: water / acetonitrile, 0.1% formic acid
observation_type: RP-LC retention time (s)

INSERT INTO assay_data (smiles_record, observation_type, observed) VALUES
  ('Cc1cc(N2CCN(S(=O)(=O)c3ccc(F)cc3F)CC2)nc(NC2CCCCC2)n1', 'RP-LC retention time', 805),
  ('COc1ccc(-c2ncc3c(=O)n(CC(=O)N4CCCC4)c(=O)n(C)c3n2)cc1', 'RP-LC retention time', 815),
  ('COCCNc1nnc(-c2nc(-c3ccc(F)cc3)no2)c2ccccc12', 'RP-LC retention time', 801);

----------
- assay_overview: gradient 5% acetonitrile 3 min, to 50% in 2 min, to 85% in 15 min, held 3 min, 100 µL/min
- condition: column: Zorbax Extend-C18 2.1 x 50 mm; eluents: water / acetonitrile, 0.1% formic acid
observation_type: RP-LC retention time (s)

INSERT INTO measurements (compound, observation_type, observed) VALUES
  ('COc1cc(NC(=O)Cn2nc(N(C)C)c3ccccc3c2=O)cc(OC)c1', 'RP-LC retention time', 836),
  ('Cc1ccc(NC(=O)C(C)C2CCN(C(=O)Nc3ccc(F)cc3)CC2)cc1C (centres undefined)', 'RP-LC retention time', 928),
  ('Cc1ccn2c(NC(=O)COc3ccccc3)c(-c3ccc(F)cc3)nc2c1', 'RP-LC retention time', 689),
  ('O=C(NC1CCN(c2cc(-c3ccccc3)[nH]n2)C1)c1ccoc1 (centres undefined)', 'RP-LC retention time', 650);

----------
- assay_overview: gradient 5% acetonitrile 3 min, to 50% in 2 min, to 85% in 15 min, held 3 min, 100 µL/min
- condition: column: Zorbax Extend-C18 2.1 x 50 mm; eluents: water / acetonitrile, 0.1% formic acid
observation_type: RP-LC retention time (s)

INSERT INTO measurements (compound, unit_of_measurement, observed) VALUES
  ('Cc1ccc(-n2c(CN3CCN(C(=O)NC4CCCC4)CC3)nc3cccnc32)cc1', 's', 663),
  ('COc1ccccc1NC(=O)N1CCC(n2cnc3c(Cl)cccc3c2=O)CC1', 's', 830),
  ('Cc1c(CNCc2ccco2)c(C(=O)O)c(C)n1Cc1cccc(Cl)c1', 's', 702),
  ('CCc1ccc(CNC(=O)C2CC(=O)N(c3ccc4oc(C)nc4c3)C2)cc1 (stereo not given)', 's', 671),
  ('COc1ccc2c(c1)CCc1c-2n[nH]c1C(=O)O', 's', 674);

----------
- assay_overview: gradient 5% acetonitrile 3 min, to 50% in 2 min, to 85% in 15 min, held 3 min, 100 µL/min
- condition: column: Zorbax Extend-C18 2.1 x 50 mm; eluents: water / acetonitrile, 0.1% formic acid
observation_type: RP-LC retention time (s)

INSERT INTO results (compound, observed) VALUES
  ('CC(=O)Nc1cc([N+](=O)[O-])c(N(C)S(=O)(=O)c2ccccc2)c2ccccc12', 781),
  ('CCC(C)C(NC(=O)c1ccc(C)cc1C)C(=O)Nc1nc2ccccc2[nH]1 (stereo not drawn)', 786),
  ('O=C(C1CCN(c2nc3ccc(-c4ccccc4)nc3s2)CC1)N1CCOCC1', 810);

----------
- assay_overview: gradient 5% acetonitrile 3 min, to 50% in 2 min, to 85% in 15 min, held 3 min, 100 µL/min
- condition: column: Zorbax Extend-C18 2.1 x 50 mm; eluents: water / acetonitrile, 0.1% formic acid
observation_type: RP-LC retention time (s)

INSERT INTO results (compound, unit_of_measurement, observed) VALUES
  ('COc1ccccc1N1CCN(C(=O)c2cccc([N+](=O)[O-])c2)CC1', 's', 786),
  ('CSc1ccc(-c2nc3cnccn3c2Nc2cccc(C(=O)N3CCCCC3)c2)cc1', 's', 807),
  ('COC(=O)c1cc(OCC(=O)Nc2ccc(F)cc2)c2cc(OC)ccc2n1', 's', 810),
  ('Cc1cc(C)nc(-n2nc(C)c3c2N(C)C(=O)CC3c2ccccc2Cl)n1 (centres undefined)', 's', 810);

----------
- assay_overview: gradient 5% acetonitrile 3 min, to 50% in 2 min, to 85% in 15 min, held 3 min, 100 µL/min
- condition: column: Zorbax Extend-C18 2.1 x 50 mm; eluents: water / acetonitrile, 0.1% formic acid
observation_type: RP-LC retention time (s)

Below are worked cases with known answers.
INSERT INTO results (compound, observation_type, unit_of_measurement, observed) VALUES
  ('CCn1cc(CCNS(=O)(=O)c2ccc(C)cc2)c2cccnc21', 'RP-LC retention time', 's', 786),
  ('COC1CN(c2cccc(F)c2)C12CCN(CC1CCCCC1)CC2 (stereo not given)', 'RP-LC retention time', 's', 806),
  ('COc1ccc(C2C(C(=O)Nc3ccc4c(c3)OCO4)c3cc(OC)c(OC)cc3C(=O)N2C)cc1 (stereo not given)', 'RP-LC retention time', 's', 798),
  ('COc1ccc(-c2csc(NC(=O)Cc3csc(C)n3)n2)cc1', 'RP-LC retention time', 's', 828),
  ('COc1cccc(CNC(=O)Cn2c(=O)c3c(C(=O)N4CCCCC4)cc(C)nc3n(C)c2=O)c1', 'RP-LC retention time', 's', 778);

1. Cc1ccc(-c2nc3nc(C)cc(N4CCCCC4C)n3n2)cc1 (stereo not given)
2. O=C(c1ccc(Cl)cc1)N1CCCN(c2nnc3ccccn23)CC1
Endpoint returns the identifier whose RP-LC retention time is numerically larger, either 1 or 2 . // respond with label for picked entry
1
(1: 1050 s, 2: 650 s)

----------
- assay_overview: gradient 5% acetonitrile 3 min, to 50% in 2 min, to 85% in 15 min, held 3 min, 100 µL/min
- condition: column: Zorbax Extend-C18 2.1 x 50 mm; eluents: water / acetonitrile, 0.1% formic acid
observation_type: RP-LC retention time (s)

INSERT INTO results (compound, observed) VALUES
  ('COc1ccc(Cl)cc1NC(=O)Cn1cccc(-c2nc(-c3ccc(OC)c(OC)c3)no2)c1=O', 887),
  ('COc1cccc(-c2noc(C3CCCN3C(=O)Nc3ccc4c(c3)OCCO4)n2)c1 (stereo not given)', 886),
  ('CCN(CC)C(=O)c1ccc2c(c1)N(CC(=O)Nc1ccc3c(c1)OCO3)C(=O)C1CCCCN21 (stereo not given)', 808),
  ('COc1ccc(OC)c(CNc2c(-c3nc(C(C)C)no3)cnc3nc(C)ccc23)c1', 784),
  ('Cc1ccc(CN2CCCn3nc(C(=O)NCc4ccc(C)o4)cc3C2=O)cc1', 875);
